Measured pKi accompanies every entry in the list below.
molecular target: human CRTH2 receptor (Homo sapiens); construct: host or cells: CHO-K1 (CHO-K1-hCRTH2 cells); membranes prepared in house from the purchased cell line; experiment: Human CRTH2 receptor membrane radioligand binding assay (SPA, [3H]-PGD2); settings: displacement of [3H]-PGD2 (1 nM) from CHO-K1-hCRTH2 cell membranes, 3 h room temperature
Sequence (Q9Y5Y4 whole entry): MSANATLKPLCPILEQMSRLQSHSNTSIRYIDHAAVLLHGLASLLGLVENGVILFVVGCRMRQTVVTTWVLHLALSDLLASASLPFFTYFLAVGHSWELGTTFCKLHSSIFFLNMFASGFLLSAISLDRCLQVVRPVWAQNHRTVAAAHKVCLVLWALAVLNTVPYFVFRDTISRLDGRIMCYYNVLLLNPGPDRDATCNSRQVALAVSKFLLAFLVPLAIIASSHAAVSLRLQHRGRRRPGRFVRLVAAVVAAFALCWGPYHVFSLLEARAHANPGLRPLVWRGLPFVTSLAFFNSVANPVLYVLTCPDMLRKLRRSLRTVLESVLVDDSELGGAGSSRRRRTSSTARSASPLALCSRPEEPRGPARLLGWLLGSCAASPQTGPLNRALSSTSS
pKi: −log10 of the molar value.

Compound | Assayed target | pKi
O=C(O)Cc1c(-c2ccccc2)nn(Cc2ccc(NC(=O)c3ccc(C(F)(F)F)cc3)cc2)c1-c1ccccc1 [Example 2.45] | human CRTH2 receptor (Homo sapiens) | 8.05
Cc1nn(Cc2ccc(OCc3ccccc3)cc2)c(C)c1CC(=O)O [Example 13.4] | human CRTH2 receptor (Homo sapiens) | 6.49
CCc1nn(Cc2ccc(C(=O)NC3CCC(C(C)(C)C)CC3)cc2)c(CC)c1CC(=O)O (stereo not drawn) [Example 9.26] | human CRTH2 receptor (Homo sapiens) | 7.40
CCc1nn(Cc2ccc(C(=O)N[C@H]3CC[C@H](c4ccccc4)CC3)cc2)c(CC)c1CC(=O)O [Example 9.21] | human CRTH2 receptor (Homo sapiens) | 8.11
CCc1nn(Cc2ccc(OCc3cccc(C(F)(F)F)c3)cc2)c(CC)c1CC(=O)O [Example 13.10] | human CRTH2 receptor (Homo sapiens) | 7.71
CCc1nn(Cc2ccc(NC(=O)OCc3ccc(Cl)c(Cl)c3)cc2)c(CC)c1CC(=O)O [Example 3.9] | human CRTH2 receptor (Homo sapiens) | 10.00
Cc1c(CC(=O)O)c(-c2ccccc2)nn1Cc1ccc(NC(=O)c2ccc(Cl)c(Cl)c2)cc1 [Example 2.13] | human CRTH2 receptor (Homo sapiens) | 8.54
Cc1nn(Cc2ccc(NS(=O)(=O)c3ccc(Cl)cc3)cc2)c(C)c1CC(=O)O [Example 5.2] | human CRTH2 receptor (Homo sapiens) | 7.47
Cc1nn(Cc2ccc(COc3ccc(C(F)(F)F)cc3)cc2)c(C)c1CC(=O)O [Example 14.1] | human CRTH2 receptor (Homo sapiens) | 5.81
Cc1nn(Cc2ccc(NC(=O)c3ccc(Cl)c(Cl)c3)cn2)c(C)c1CC(=O)O [Example 18.1] | human CRTH2 receptor (Homo sapiens) | 8.80
Cc1cc(Cn2nc(C)c(CC(=O)O)c2C)ccc1NC(=O)c1ccc(Cl)cc1 [Example 7.2] | human CRTH2 receptor (Homo sapiens) | 6.79
Cc1nn(Cc2ccc(NC(=O)c3ccc(C(F)(F)F)cc3)cc2Cl)c(C)c1CC(=O)O [Example 7.8] | human CRTH2 receptor (Homo sapiens) | 9.10
CCc1nn(Cc2ccc(C(=O)Nc3cccc(F)c3)cc2)c(CC)c1CC(=O)O [Example 9.10] | human CRTH2 receptor (Homo sapiens) | 7.41
Cc1nn(Cc2ccc(C(=O)Nc3ccc(Br)c(F)c3)cc2)c(C)c1CC(=O)O [Example 9.9] | human CRTH2 receptor (Homo sapiens) | 7.71
Cc1nn(Cc2ccc(NC(=O)c3cccc4c3CCCC4)cc2)c(C)c1CC(=O)O [Example 1.29] | human CRTH2 receptor (Homo sapiens) | 8.60
CCc1nn(Cc2ccc(NC(=O)OCc3ccccc3)cc2)c(CC)c1CC(=O)O [Example 3.3] | human CRTH2 receptor (Homo sapiens) | 9.52
CCc1nn(Cc2ccc(NC(=O)C(C)C)cc2)c(CC)c1CC(=O)O [Example 2.34] | human CRTH2 receptor (Homo sapiens) | 8.37
Cc1cc(C(=O)Nc2ccc(Cn3nc(C)c(CC(=O)O)c3C)cc2)c(C)cc1Br [Example 1.17] | human CRTH2 receptor (Homo sapiens) | 8.60
Cc1nn(Cc2ccc(C(=O)Nc3cc(Cl)cc(Cl)c3)cc2)c(C)c1CC(=O)O [Example 9.8] | human CRTH2 receptor (Homo sapiens) | 7.51
Cc1nn(Cc2ccc(NC(=O)c3ccc(Cl)cc3Cl)cc2)c(C)c1CC(=O)O [Example 1.18] | human CRTH2 receptor (Homo sapiens) | 7.75
CCc1nn(Cc2ccc(NC(=O)C(C)(C)C)cc2)c(CC)c1CC(=O)O [Example 2.30] | human CRTH2 receptor (Homo sapiens) | 8.24
Cc1nn(Cc2ccc(CS(=O)(=O)c3ccc(Cl)c(Cl)c3)cc2)c(C)c1CC(=O)O [Example 16.6] | human CRTH2 receptor (Homo sapiens) | 6.07
CCc1ccccc1C(=O)Nc1ccc(Cn2nc(CC)c(CC(=O)O)c2CC)cc1 [Example 2.23] | human CRTH2 receptor (Homo sapiens) | 8.21
CCc1nn(Cc2ccc(C(=O)NCc3ccc(C(F)(F)F)cc3)cc2)c(CC)c1CC(=O)O [Example 9.20] | human CRTH2 receptor (Homo sapiens) | 7.42
Cc1nn(Cc2ccc(NC(=O)OCc3ccccc3)cc2)c(C)c1CCC(=O)O [Example 3.2] | human CRTH2 receptor (Homo sapiens) | 6.10
Cc1nn(Cc2ccc(NC(=O)C3CCC3)cc2)c(C)c1CC(=O)O [Example 1.35] | human CRTH2 receptor (Homo sapiens) | 7.35
CCc1nn(Cc2ccc(C(=O)N[C@@H]3CCC[C@H](c4ccccc4)C3)cc2)c(CC)c1CC(=O)O [Example 9.22] | human CRTH2 receptor (Homo sapiens) | 7.81
Cc1cc(C(F)(F)F)ccc1C(=O)Nc1ccc(Cn2nc(C)c(CCC(=O)O)c2C)cc1 [Example 8.7] | human CRTH2 receptor (Homo sapiens) | 6.17
Cc1nn(Cc2ccc(NC(=O)c3ccc(Cl)c(Cl)c3)cc2)c(C)c1CCC(=O)O [Example 8.6] | human CRTH2 receptor (Homo sapiens) | 6.90
Cc1nn(Cc2ccc(NC(=O)c3ccc(C(F)(F)F)cc3)cc2)c(C)c1CC(=O)NS(=O)(=O)C(C)(C)C [Example 11.1] | human CRTH2 receptor (Homo sapiens) | 7.53
Cc1nn(Cc2ccc(NC(=O)C3CCCCC3)cc2)c(C)c1CC(=O)O [Example 1.33] | human CRTH2 receptor (Homo sapiens) | 7.53
Cc1cc(C)c(C(=O)Nc2ccc(Cn3nc(C)c(CC(=O)O)c3C)cc2)c(C)c1 [Example 1.24] | human CRTH2 receptor (Homo sapiens) | 6.26
Cc1nn(Cc2ccc(CSc3ccc(C(F)(F)F)cc3)cc2)c(C)c1CC(=O)O [Example 16.1] | human CRTH2 receptor (Homo sapiens) | 6.00
